protocol: Thermal stability assessment by nanoDSC
Assay type: physicochemical
condition-notes: 1 mg/mL in PBS, scan 25-100° C. at 1° C./min, major transition

{"molecule": "SEQ ID NO: 9: parent CTGF-binding hNGAL lipocalin mutein (protein, lipocalin mutein) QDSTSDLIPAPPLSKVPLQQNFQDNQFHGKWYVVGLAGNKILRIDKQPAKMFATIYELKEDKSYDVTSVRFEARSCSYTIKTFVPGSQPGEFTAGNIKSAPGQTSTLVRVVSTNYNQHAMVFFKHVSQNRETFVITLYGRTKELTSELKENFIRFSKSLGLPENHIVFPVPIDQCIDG", "TM [°C]": 64}
{"molecule": "SEQ ID NO: 8: optimized CTGF-binding hNGAL lipocalin mutein (protein, lipocalin mutein) QDSTSDLIPAPPLSKVPLQQNFQDNQFQGKWYVVGLAGNYGLRTDKRPSKMFATIYELKEDKSYDVTSVRFEQERCHYTIRTFVPGSQPGEFTSGNIGNYPGSYSTLVRVVSTNYNQHAMVFFKSVIQNREYFAITLYGRTKELTSELKENFIRFSKSLGLPENHIVFPVPIDQCIDG", "TM [°C]": 75}
{"molecule": "SEQ ID NO: 29: parent CTGF-binding hNGAL lipocalin mutein (protein, lipocalin mutein) QDSTSDLIPAPPLSKVPLQQNFQDNQFHGKWYVVGWAGNIKLREDKDPFKMSATIYELKEDKSYNVTEVVFEQKKCHYIIKTFVPGSQPGEFTLGDIKSPPGETSSLVRVVSTNYNQHAMVFFKKVFQNREFFWITLYGRTKELTSELKENFIRFSKSLGLPENHIVFPVPIDQCIDG", "TM [°C]": 76}

Numbers sourced from patent US20240228562A1.
